Every entry's value here was drawn from patent US20260069582A1.

Reported Initial purity (%) values for the following compounds.
experiment: Solid state stability study (purity by HPLC and crystal form change); assay type: physicochemical; settings: before storage, HPLC

{"compound": "O=C(O)c1ccc2nc(CN3CCC(Oc4cccc(COc5ccc(Cl)cc5F)n4)CC3)n(C[C@@H]3CCO3)c2c1 [Crystal form A of compound I]", "Initial purity (%)": "99.30%"}
{"compound": "O=C(O)c1ccc2nc(CN3CCC(Oc4cccc(COc5ccc(Cl)cc5F)n4)CC3)n(C[C@@H]3CCO3)c2c1 [Free form of compound I]", "Initial purity (%)": "98.98%"}
{"compound": "O=C(O)c1ccc2nc(CN3CCC(Oc4cccc(COc5ccc(Cl)cc5F)n4)CC3)n(C[C@@H]3CCO3)c2c1 [Crystal form I of compound I]", "Initial purity (%)": "98.44%"}
{"compound": "O=C(O)c1ccc2nc(CN3CCC(Oc4cccc(COc5ccc(Cl)cc5F)n4)CC3)n(C[C@@H]3CCO3)c2c1 [Crystal form B of compound I]", "Initial purity (%)": "98.80%"}

----------
test: Solid state stability study (purity by HPLC and crystal form change); format: physicochemical; conditions: 60° C., RH<30%, 7 days (high-temperature)

{"molecule": "O=C(O)c1ccc2nc(CN3CCC(Oc4cccc(COc5ccc(Cl)cc5F)n4)CC3)n(C[C@@H]3CCO3)c2c1 [Crystal form B of compound I]", "Purity (%)": 98.67}
{"molecule": "O=C(O)c1ccc2nc(CN3CCC(Oc4cccc(COc5ccc(Cl)cc5F)n4)CC3)n(C[C@@H]3CCO3)c2c1 [Crystal form I of compound I]", "Purity (%)": 98.48}
{"molecule": "O=C(O)c1ccc2nc(CN3CCC(Oc4cccc(COc5ccc(Cl)cc5F)n4)CC3)n(C[C@@H]3CCO3)c2c1 [Crystal form A of compound I]", "Purity (%)": 98.83}
{"molecule": "O=C(O)c1ccc2nc(CN3CCC(Oc4cccc(COc5ccc(Cl)cc5F)n4)CC3)n(C[C@@H]3CCO3)c2c1 [Free form of compound I]", "Purity (%)": 89.15}

----------
assay: Solid state stability study (purity by HPLC and crystal form change); type: physicochemical; conditions: 25° C./60% RH, 7 days (long-term storage)
Purity (%): recorded values

{"molecule": "O=C(O)c1ccc2nc(CN3CCC(Oc4cccc(COc5ccc(Cl)cc5F)n4)CC3)n(C[C@@H]3CCO3)c2c1 [Free form of compound I]", "Purity (%)": 98.94}
{"molecule": "O=C(O)c1ccc2nc(CN3CCC(Oc4cccc(COc5ccc(Cl)cc5F)n4)CC3)n(C[C@@H]3CCO3)c2c1 [Crystal form A of compound I]", "Purity (%)": 99.18}
{"molecule": "O=C(O)c1ccc2nc(CN3CCC(Oc4cccc(COc5ccc(Cl)cc5F)n4)CC3)n(C[C@@H]3CCO3)c2c1 [Crystal form B of compound I]", "Purity (%)": 98.74}
{"molecule": "O=C(O)c1ccc2nc(CN3CCC(Oc4cccc(COc5ccc(Cl)cc5F)n4)CC3)n(C[C@@H]3CCO3)c2c1 [Crystal form I of compound I]", "Purity (%)": 98.41}

----------
assay: Drug absorption experiment in SD rats, intravenous administration; format: in vivo; conditions: rat, plasma, tail vein injection, 2 mg/kg

{"compound": "O=C(O)c1ccc2nc(CN3CCC(Oc4cccc(COc5ccc(Cl)cc5F)n4)CC3)n(C[C@@H]3CCO3)c2c1 [Crystal form A of compound I]", "AUC(0-t) [ng·h/mL]": 2440}

----------
assay: Drug absorption experiment in SD rats, intravenous administration; format: in vivo; details: rat, plasma, tail vein injection, 1 mg/kg
measured property: half-life (h)

{"compound": "O=C(O)c1ccc2nc(CN3CCC(Oc4cccc(COc5ccc(Cl)cc5F)n4)CC3)n(C[C@@H]3CCO3)c2c1 [Free form of compound I]", "measured property": "half-life", "result value": 3.89}

----------
assay: Drug absorption experiment in SD rats, intravenous administration; assay type: in vivo; details: rat, plasma, tail vein injection, 1 mg/kg

{"molecule": "O=C(O)c1ccc2nc(CN3CCC(Oc4cccc(COc5ccc(Cl)cc5F)n4)CC3)n(C[C@@H]3CCO3)c2c1 [Free form of compound I]", "AUC(0-t) / ng·h/mL": 1280}

----------
test: Drug absorption experiment in SD rats, intragastric administration; format: in vivo; details: SD, rat, plasma, po, 5 mg/kg, read-out: Cmax

{"molecule": "O=C(O)c1ccc2nc(CN3CCC(Oc4cccc(COc5ccc(Cl)cc5F)n4)CC3)n(C[C@@H]3CCO3)c2c1 [Free form of compound I]", "value unit": "ng/mL", "Cmax": 600}

----------
assay: Solid state stability study (purity by HPLC and crystal form change); format: physicochemical; conditions: 40° C./75% RH, 7 days (accelerated)

{"molecule": "O=C(O)c1ccc2nc(CN3CCC(Oc4cccc(COc5ccc(Cl)cc5F)n4)CC3)n(C[C@@H]3CCO3)c2c1 [Free form of compound I]", "Purity (%)": 95.86}
{"molecule": "O=C(O)c1ccc2nc(CN3CCC(Oc4cccc(COc5ccc(Cl)cc5F)n4)CC3)n(C[C@@H]3CCO3)c2c1 [Crystal form A of compound I]", "Purity (%)": 99.17}
{"molecule": "O=C(O)c1ccc2nc(CN3CCC(Oc4cccc(COc5ccc(Cl)cc5F)n4)CC3)n(C[C@@H]3CCO3)c2c1 [Crystal form I of compound I]", "Purity (%)": 98.47}
{"molecule": "O=C(O)c1ccc2nc(CN3CCC(Oc4cccc(COc5ccc(Cl)cc5F)n4)CC3)n(C[C@@H]3CCO3)c2c1 [Crystal form B of compound I]", "Purity (%)": 98.73}

----------
assay: Drug absorption experiment in SD rats, intravenous administration; format: in vivo; details: rat, plasma, tail vein injection, 2 mg/kg

{"molecule": "O=C(O)c1ccc2nc(CN3CCC(Oc4cccc(COc5ccc(Cl)cc5F)n4)CC3)n(C[C@@H]3CCO3)c2c1 [Crystal form A of compound I]", "Cmax": "7640 ng/mL"}

----------
experiment: Drug absorption experiment in SD rats, intragastric administration; assay type: in vivo; details: SD, rat, plasma, po, 5 mg/kg, read-out: Tmax
measured property: Tmax (min)

{"compound": "O=C(O)c1ccc2nc(CN3CCC(Oc4cccc(COc5ccc(Cl)cc5F)n4)CC3)n(C[C@@H]3CCO3)c2c1 [Free form of compound I]", "measured property": "Tmax", "result value": 30}

----------
Assay: Drug absorption experiment in SD rats, intragastric administration
Assay type: in vivo
Details: SD, rat, plasma, po, 5 mg/kg, read-out: AUC0-t
Protocol: Blood samples were collected at different time points after administration and then separated to prepare plasma. The concentration of the drug in plasma was determined by liquid chromatography-tandem mass spectrometry, and pharmacokinetic parameters were calculated using a non-compartmental model.
measured property: AUC(0-t) (µg·h/mL)

{"molecule": "O=C(O)c1ccc2nc(CN3CCC(Oc4cccc(COc5ccc(Cl)cc5F)n4)CC3)n(C[C@@H]3CCO3)c2c1 [Free form of compound I]", "measured property": "AUC(0-t)", "result value": 1.4}
